Values compiled from patent US20120014941A1.

Target: T1, recombinant human Bv8 (PeproTech) (human, UniProt Q9HC23-2 28-108, biotinylated (Sulfo-NHS-LC-biotin) in the two competition ELISAs with coated antibody)
T1 construct: Bought protein; also called HuBv8; prokineticin-2
T1 sequence (looked up): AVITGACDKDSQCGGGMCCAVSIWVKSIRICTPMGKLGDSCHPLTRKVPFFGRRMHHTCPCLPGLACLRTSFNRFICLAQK
Test: SPR (BIAcore 3000, 25 C): human Bv8 coupled to CM5 chip, IgG injected; 1:1 Langmuir fit
observable: kon (M⁻¹ s⁻¹)
Express the result in M⁻¹ s⁻¹ but write the number alone.

q: // Input: chimeric 2G9 anti-Bv8 antibody (IgG) (antibody, V domains shown, also called chimeric 2G9 IgG) VH: EVQLQQSGPEVVKTGASVKISCKASGYSFTDYDMHWVKQSQGKSLEWIGYISCYNGATTYNQKFKGKATFTVDKSSTTAYMQFNSLTSEDSAVYYCARDGNYGEAYAMDYWGQGTSLTVSS VL: DIVLTQSPASLAVSLGQRATISCKASQSVDYDGDSYMNWYQQKPGQPPKLLIYAASNLESGIPARFSGSGSGTDFTLNIHPVEEEDAATYYCQQINEDPFTFGQGTKVEIK . Output its kon only.
a: 758000

q: // Input: h2G9.K4G1.Polish IgG (antibody, V domains shown, IgG; constant regions not described for the humanized antibodies; also called parental polished K4G1 molecule) VH: EVQLVQSGAEVKKPGASVKVSCKASGYSFTDYDMHWVRQAPGQGLEWIGYISSYSGATTYNQKFKGRVTITVDKSTSTAYLELSSLRSEDTAVYYCARDSNYGEAYAMDYWGQGTLVTVSS VL: DIVMTQSPDSLAVSLGERATINCKASQSVDYSGDSYMNWYQQKPGQPPKLLIYAASNLESGVPDRFSGSGSGTDFTLTISSLQAEDVAVYYCQQINEDPFTFGQGTKVEIK . Output its kon only.
a: 528000

q: // Input: h2G9.K4G1.v55 IgG (antibody, V domains shown, Variable domains only; IgG, constant regions not described; claims 8 and 9); also called humanized 2G9 variant 55) VH: EVQLVQSGAEVKKPGASVKVSCKASGYSFTDYDMHWVRQAPGQGLEWIGYISSYSGATTYNQKFKGRVTITVDKSTSTAYLELSSLRSEDTAVYYCARDSNYGEAYAMDYWGQGTLVTVSS VL: DIVMTQSPDSLAVSLGERATINCKASQSLDYYHYSYMNWYQQKPGQPPKLLIYAASNRESGVPDRFSGSGSGTDFTLTISSLQAEDVAVYYCQQINEDPFTFGQGTKVEIKR . Output its kon only.
a: 945000

Now take the following binder into account.
q: // Input: h2G9.K4G1.v19 IgG (antibody, V domains shown, Variable domains only; IgG, constant regions not described; claims 6 and 7); also called humanized 2G9 variant 19) VH: EVQLVQSGAEVKKPGASVKVSCKASGYSLTNYDMHWVRQAPGQGLEWIGYIHSYSGSTLYNQKFKGRVTITVDKSTSTAYLELSSLRSEDTAVYYCARDSNYGEAYAMDYWGQGTLVTVSS VL: DIVMTQSPDSLAVSLGERATINCKASQSVDYSGDSYMNWYQQKPGQPPKLLIYAASNLESGVPDRFSGSGSGTDFTLTISSLQAEDVAVYYCQQINEDPFTFGQGTKVEIKR . Output its kon only.
a: 760000
